ASSAY SUMMARY: Inhibition of Escherichia coli TrmD using S-[methyl-3H] adenosyl-L-methionine as substrate assessed as leucine-tRNA methylation after 1 hr by scintillation proximity assay
pIC50: −log10 of the molar value.
Tag: Fulfilled if measured pIC50 is not below 6, Not fulfilled if it is.

{"columns": ["COMPOUND", "CATEGORY"],
 "data": [
  ["O=C1CN(Cc2ccc(CNC(=O)c3csc4nc[nH]c(=O)c34)cc2)CCN1", "Not fulfilled"],
  ["O=C(NCc1ccccc1)c1csc2nc[nH]c(=O)c12", "Not fulfilled"],
  ["O=c1[nH]cnc2sccc12", "Not fulfilled"],
  ["C[C@H](NC(=O)c1csc2nc[nH]c(=O)c12)c1ccccc1", "Not fulfilled"],
  ["O=C(NCc1ccc(CN2CCN(CCO)CC2)cc1)c1csc2nc[nH]c(=O)c12", "Fulfilled"]
]}

State whether the measured pIC50 reaches 6, counting equality as reaching it, for O=C(NCc1ccc(CN2CC[C@@H](O)C2)cc1)c1csc2nc[nH]c(=O)c12
Fulfilled

State whether the measured pIC50 reaches 6, counting equality as reaching it, for Oc1ncnc2scc(-c3ccccc3)c12
Not fulfilled

State whether the measured pIC50 reaches 6, counting equality as reaching it, for NCC1CCC(CNC(=O)c2csc3nc[nH]c(=O)c23)CC1 (stereo unspecified)
Not fulfilled

###

ASSAY SUMMARY: Inhibition of Escherichia coli TrmD using S-[methyl-3H] adenosyl-L-methionine as substrate assessed as leucine-tRNA methylation after 1 hr by scintillation proximity assay
param class (str): category from IC50; see ranges lo = under 1 µM, mid = from 1 µM up to 10 µM, hi = 10 µM and over

Some entries whose results are on file:
{"columns": ["COMPOUND", "CATEGORY"],
 "data": [
  ["CN(C)Cc1ccc(CNC(=O)c2csc3nc[nH]c(=O)c23)cc1", "mid"],
  ["O=C(NCc1ccc(CN2CCNCC2)cc1)c1csc2nc[nH]c(=O)c12", "lo"],
  ["Nc1ncnc2c1ncn2[C@@H]1O[C@H](C[C@@H](N)CC[C@H](N)C(=O)O)[C@@H](O)[C@H]1O [SINEFUNGIN]", "hi"]
]}

Lab log: O=c1[nH]cnc2scc(C3CCCC3)c12 — assign IC50 category
hi

Lab log: CC(=O)N1CCC(c2csc3nc[nH]c(=O)c23)C1 (stereo not given) — assign IC50 category
hi

Lab log: C[C@@H](NC(=O)c1csc2nc[nH]c(=O)c12)c1ccccc1 — assign IC50 category
hi

Lab log: CN(Cc1ccccc1)C(=O)c1csc2nc[nH]c(=O)c12 — assign IC50 category
hi

Lab log: NC1CCCN(Cc2ccc(CNC(=O)c3csc4nc[nH]c(=O)c34)cc2)C1 (stereo not given) — assign IC50 category
lo

###

ASSAY SUMMARY: Dissociation constant, pKa of the compound
Assay type: physicochemical
METRIC: pKa

{"columns": ["CHEMICAL SMILES", "METRIC", "OBSERVED VALUE"],
 "data": [
  ["NCc1ccc(CNC(=O)c2csc3nc[nH]c(=O)c23)cc1", "pKa", 14.4]
]}

Please find the next molecule below.
Data point: O=C(NCc1ccc(CNCc2ncc[nH]2)cc1)c1csc2nc[nH]c(=O)c12 ; pKa = 6.5
